Data origin, for the record: patent US20120245137A1

Provide the reported IC50 of each item.
target or system: T-type calcium channel (Homo sapiens, UniProt O95180)
experiment notes: T-type channel blocking, FLIPR data (Table 6)
Format: cell-based
assay context: CAv3.2, inactivated state, read-out: CAv3.2 IC50 Inact.
Give bare numbers, in µM.

List the reported IC50 of each molecule below.
1. CNC1(CC(=O)N[C@H]2C[C@@H](C(C)(C)S(=O)(=O)c3cc(F)cc(C(F)(F)F)c3)C2)CCCCC1
2. NC1(CC(=O)N2CC(CS(=O)(=O)c3cc(F)cc(C(F)(F)F)c3)C2)CCCCC1
3. CC(C)([C@H]1C[C@@H](NC(=O)c2ccc(Cl)c(F)c2)C1)S(=O)(=O)c1cc(F)cc(C(F)(F)F)c1
4. CC(C)([C@H]1C[C@H](NS(=O)(=O)c2ccc(F)c(Cl)c2)C1)S(=O)(=O)c1cccc(C(F)(F)F)c1
5. CC(C)(C[C@H]1C[C@@H](NC(=O)[C@@H]2CCCC[C@@H]2N)C1)S(=O)(=O)c1cccc(C(F)(F)F)c1
6. O=C(c1ccc(OCC(F)(F)F)nc1)N1CC(CS(=O)(=O)c2cc(F)cc(C(F)(F)F)c2)C1
7. O=C(NC[C@H]1C[C@H](S(=O)(=O)c2cccc(OC(F)(F)F)c2)C1)c1ccnc(C(F)(F)F)n1

10
10
1.07
2.79
10
5.57
8.91

----------
target or system: T-type calcium channel (Homo sapiens, UniProt O95180)
experiment notes: T-type channel blocking, FLIPR data (Table 6)
Assay type: cell-based
assay context: CAv3.2, inactivated state, read-out: CAv3.2 IC50 Inact.
Please go through the items and note down their pIC50.
One number for each entry, as −log10 of the molar value.

>  <smiles code>
N[C@H]1CCCC[C@H]1C(=O)NC[C@H]1C[C@H](S(=O)(=O)c2cccc(Cl)c2)C1

>  <target or system>
T-type calcium channel (Homo sapiens, UniProt O95180)

>  <pIC50>
5.00

$$$$

Could you tell me pIC50 for each of these compounds? They are listed below.
1. CC(C)([C@H]1C[C@@H](CNc2ccc(F)c(Cl)c2)C1)S(=O)(=O)c1cccc(C(F)(F)F)c1
2. O=C(NC[C@H]1C[C@H](S(=O)(=O)c2cccc(Cl)c2)C1)c1ccc(Cl)cn1
3. CC(C)S(=O)(=O)c1cc(C(F)(F)F)cnc1C(=O)N[C@H]1C[C@H](C(C)(C)S(=O)(=O)c2cccc(OC(F)(F)F)c2)C1
4. CC(C)([C@H]1C[C@@H](NC(=O)c2ccc(Cl)cn2)C1)S(=O)(=O)c1cccc(C(F)(F)F)c1
5. CC(C)([C@H]1C[C@@H](NC(=O)c2ccnc(C(F)(F)F)n2)C1)S(=O)(=O)c1cccc(OC(F)(F)F)c1
6. CC(C)([C@H]1C[C@H](NC(=O)c2ccc(F)c(Cl)c2)C1)S(=O)(=O)c1cc(F)cc(C(F)(F)F)c1

[5.79, 5.00, 5.20, 5.28, 5.55, 5.92]

----------
target or system: human α1G T-type channels (Homo sapiens)
experiment notes: T-type calcium channel block, whole cell patch clamp, α1G
assay context: HEK cells stably expressing human α1G; mainly non-inactivated protocol; values above 10,000 nM represented as 10000
parameter measured: pIC50
One number for each entry, as −log10 of the molar value.

Known pIC50 results, listed for orientation:
>  <compound>
Cn1nc(C(F)(F)F)cc1NC(=O)[C@H]1C[C@@H](S(=O)(=O)c2cccc(C(F)(F)F)c2)C1 [Compound 408]

>  <target or system>
human α1G T-type channels (Homo sapiens)

>  <numeric result>
5.10

$$$$
>  <compound>
Cc1noc(C)c1S(=O)(=O)N[C@H]1CC[C@@](F)(S(=O)(=O)c2cccc(C(F)(F)F)c2)CC1 [Compound 298]

>  <target or system>
human α1G T-type channels (Homo sapiens)

>  <numeric result>
6.06

$$$$

Report pIC50, nothing else, for this compound: CC(C)(CCNC(=O)c1ccc(Oc2ccc(F)cc2)cc1)S(=O)(=O)c1cccc(C(F)(F)F)c1 [Compound 520]
6.96

----------
Answer each item with its documented pIC50.
target or system: T-type calcium channel (Homo sapiens, UniProt O95180)
experiment notes: T-type channel blocking, FLIPR data (Table 6)
Type: cell-based
assay context: CAv3.2, inactivated state, read-out: CAv3.2 IC50 Inact.
Give bare numbers, as −log10 of the molar value.

>  <compound>
CC(C)([C@H]1C[C@H](NC(=O)c2ccnc(C(F)(F)F)c2)C1)S(=O)(=O)c1cccc(C(F)(F)F)c1 [Compound 672]

>  <target or system>
T-type calcium channel (Homo sapiens, UniProt O95180)

>  <pIC50>
5.39

$$$$
>  <compound>
CC(C)([C@H]1C[C@@H](NC(=O)CC2(N)CCCCC2)C1)S(=O)(=O)c1cccc(OC(F)(F)F)c1 [Compound 655]

>  <target or system>
T-type calcium channel (Homo sapiens, UniProt O95180)

>  <pIC50>
5.00

$$$$
>  <compound>
CC(C)([C@H]1C[C@H](NC(=O)c2ccc(S(C)(=O)=O)cc2Cl)C1)S(=O)(=O)c1cccc(C(F)(F)F)c1 [Compound 680]

>  <target or system>
T-type calcium channel (Homo sapiens, UniProt O95180)

>  <pIC50>
5.00

$$$$
>  <compound>
CC(C)(C1CC(CNC(=O)c2ccnc(C(F)(F)F)c2)C1)S(=O)(=O)c1cccc(C(F)(F)F)c1 (stereo not shown) [Compound 620]

>  <target or system>
T-type calcium channel (Homo sapiens, UniProt O95180)

>  <pIC50>
5.86

$$$$
>  <compound>
CC(C)([C@H]1C[C@H](NC(=O)c2ccc(C(F)(F)F)cc2)C1)S(=O)(=O)c1cccc(C(F)(F)F)c1 [Compound 677]

>  <target or system>
T-type calcium channel (Homo sapiens, UniProt O95180)

>  <pIC50>
5.74

$$$$

Count: 2. Required value per item: pIC50.
1. CC(C)(C[C@H]1C[C@@H](NC(=O)CC2(N)CCCCC2)C1)S(=O)(=O)c1cccc(C(F)(F)F)c1 [Compound 739]
2. CC(C)([C@H]1C[C@@H](CNc2cc(C(F)(F)F)n[nH]2)C1)S(=O)(=O)c1cccc(C(F)(F)F)c1 [Compound 755]

1. 5.00
2. 5.60

----------
Give log10(IC50) for every item shown.
target or system: Human Cav 2.2 channels (Homo sapiens)
Sequence (Q00975 whole entry): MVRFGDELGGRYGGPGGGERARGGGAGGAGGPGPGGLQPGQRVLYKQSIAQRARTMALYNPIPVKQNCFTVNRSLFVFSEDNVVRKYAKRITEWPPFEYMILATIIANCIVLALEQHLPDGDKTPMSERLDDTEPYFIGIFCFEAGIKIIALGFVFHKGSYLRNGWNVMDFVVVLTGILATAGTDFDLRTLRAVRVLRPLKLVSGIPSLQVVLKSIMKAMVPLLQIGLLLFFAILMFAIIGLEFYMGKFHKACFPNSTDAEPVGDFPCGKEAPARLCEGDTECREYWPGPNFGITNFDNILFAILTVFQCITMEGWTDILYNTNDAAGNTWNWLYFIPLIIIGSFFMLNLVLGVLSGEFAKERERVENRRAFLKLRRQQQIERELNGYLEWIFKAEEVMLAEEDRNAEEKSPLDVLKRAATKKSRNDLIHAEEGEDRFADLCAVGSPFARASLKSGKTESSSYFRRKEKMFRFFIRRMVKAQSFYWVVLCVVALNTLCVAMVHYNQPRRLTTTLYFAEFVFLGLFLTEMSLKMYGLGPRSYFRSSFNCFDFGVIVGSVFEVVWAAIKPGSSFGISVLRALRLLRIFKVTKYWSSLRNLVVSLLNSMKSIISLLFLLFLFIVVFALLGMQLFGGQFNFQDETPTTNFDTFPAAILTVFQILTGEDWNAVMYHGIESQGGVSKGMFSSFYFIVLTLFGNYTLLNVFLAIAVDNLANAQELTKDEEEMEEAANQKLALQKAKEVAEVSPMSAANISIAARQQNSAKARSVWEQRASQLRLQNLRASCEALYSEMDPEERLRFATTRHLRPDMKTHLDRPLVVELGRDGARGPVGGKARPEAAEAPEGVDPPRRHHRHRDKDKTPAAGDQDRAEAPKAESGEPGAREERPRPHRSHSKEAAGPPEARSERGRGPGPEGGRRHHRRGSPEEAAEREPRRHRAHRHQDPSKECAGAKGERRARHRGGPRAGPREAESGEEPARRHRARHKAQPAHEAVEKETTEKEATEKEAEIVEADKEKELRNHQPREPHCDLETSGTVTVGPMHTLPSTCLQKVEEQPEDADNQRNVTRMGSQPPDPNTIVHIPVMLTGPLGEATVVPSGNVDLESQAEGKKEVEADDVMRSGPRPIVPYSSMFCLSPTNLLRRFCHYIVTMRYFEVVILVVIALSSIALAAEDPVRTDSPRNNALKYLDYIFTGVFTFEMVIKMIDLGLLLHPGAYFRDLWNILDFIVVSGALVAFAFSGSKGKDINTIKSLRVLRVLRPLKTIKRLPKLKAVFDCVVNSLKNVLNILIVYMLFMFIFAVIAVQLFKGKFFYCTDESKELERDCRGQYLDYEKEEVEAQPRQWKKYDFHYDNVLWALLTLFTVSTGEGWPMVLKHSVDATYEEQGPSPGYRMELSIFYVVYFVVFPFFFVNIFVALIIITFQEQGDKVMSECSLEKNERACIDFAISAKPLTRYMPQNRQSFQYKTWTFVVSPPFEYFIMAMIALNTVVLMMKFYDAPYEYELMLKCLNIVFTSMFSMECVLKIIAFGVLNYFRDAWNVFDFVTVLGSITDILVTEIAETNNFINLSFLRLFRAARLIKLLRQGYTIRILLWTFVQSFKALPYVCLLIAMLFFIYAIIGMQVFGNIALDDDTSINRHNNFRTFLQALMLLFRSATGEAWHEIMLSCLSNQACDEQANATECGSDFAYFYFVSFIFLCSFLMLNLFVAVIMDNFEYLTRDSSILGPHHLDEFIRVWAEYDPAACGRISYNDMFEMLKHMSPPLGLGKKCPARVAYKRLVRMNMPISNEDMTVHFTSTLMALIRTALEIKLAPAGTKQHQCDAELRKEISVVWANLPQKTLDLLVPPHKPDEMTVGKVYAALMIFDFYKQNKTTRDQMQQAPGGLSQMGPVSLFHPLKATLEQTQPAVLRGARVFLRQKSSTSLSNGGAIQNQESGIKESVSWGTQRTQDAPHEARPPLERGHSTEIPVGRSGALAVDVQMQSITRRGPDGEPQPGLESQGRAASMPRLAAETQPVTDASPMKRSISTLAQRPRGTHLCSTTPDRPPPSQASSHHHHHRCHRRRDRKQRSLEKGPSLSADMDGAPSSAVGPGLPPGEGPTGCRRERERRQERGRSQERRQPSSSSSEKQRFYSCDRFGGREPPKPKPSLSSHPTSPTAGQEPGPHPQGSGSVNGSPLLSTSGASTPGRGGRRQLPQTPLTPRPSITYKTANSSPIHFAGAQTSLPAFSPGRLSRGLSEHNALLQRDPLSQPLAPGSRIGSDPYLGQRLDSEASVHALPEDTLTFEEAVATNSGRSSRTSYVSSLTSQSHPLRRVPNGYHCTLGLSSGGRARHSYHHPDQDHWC
Sequence (P54289 25-1103 partner): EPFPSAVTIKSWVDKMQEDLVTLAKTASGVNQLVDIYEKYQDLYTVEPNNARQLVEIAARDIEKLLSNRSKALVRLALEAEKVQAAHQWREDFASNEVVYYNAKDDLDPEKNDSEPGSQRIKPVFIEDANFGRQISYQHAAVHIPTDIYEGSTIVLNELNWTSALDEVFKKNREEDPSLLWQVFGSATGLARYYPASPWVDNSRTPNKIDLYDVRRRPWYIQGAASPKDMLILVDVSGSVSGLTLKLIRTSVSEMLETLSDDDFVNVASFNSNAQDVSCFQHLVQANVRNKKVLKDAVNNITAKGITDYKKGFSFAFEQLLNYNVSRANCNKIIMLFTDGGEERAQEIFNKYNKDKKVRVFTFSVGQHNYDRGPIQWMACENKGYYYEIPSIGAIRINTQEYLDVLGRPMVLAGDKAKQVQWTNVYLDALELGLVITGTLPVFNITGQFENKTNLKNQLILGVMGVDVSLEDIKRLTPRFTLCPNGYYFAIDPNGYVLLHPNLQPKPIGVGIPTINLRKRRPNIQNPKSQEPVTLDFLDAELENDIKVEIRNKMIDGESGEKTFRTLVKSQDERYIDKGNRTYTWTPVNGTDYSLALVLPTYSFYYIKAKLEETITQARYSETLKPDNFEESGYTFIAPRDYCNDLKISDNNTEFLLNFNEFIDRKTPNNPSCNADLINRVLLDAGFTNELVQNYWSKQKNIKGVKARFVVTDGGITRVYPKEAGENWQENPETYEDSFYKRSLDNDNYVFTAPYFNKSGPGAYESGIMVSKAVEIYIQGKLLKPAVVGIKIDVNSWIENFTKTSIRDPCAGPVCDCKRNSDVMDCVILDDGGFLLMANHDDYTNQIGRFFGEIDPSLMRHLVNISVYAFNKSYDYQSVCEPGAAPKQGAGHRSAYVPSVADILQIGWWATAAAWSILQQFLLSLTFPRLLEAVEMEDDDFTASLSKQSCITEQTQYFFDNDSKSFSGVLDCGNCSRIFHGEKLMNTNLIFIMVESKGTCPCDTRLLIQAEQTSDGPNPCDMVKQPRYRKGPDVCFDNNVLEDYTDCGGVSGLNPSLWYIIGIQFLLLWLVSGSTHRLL
Sequence (P54284 whole entry partner): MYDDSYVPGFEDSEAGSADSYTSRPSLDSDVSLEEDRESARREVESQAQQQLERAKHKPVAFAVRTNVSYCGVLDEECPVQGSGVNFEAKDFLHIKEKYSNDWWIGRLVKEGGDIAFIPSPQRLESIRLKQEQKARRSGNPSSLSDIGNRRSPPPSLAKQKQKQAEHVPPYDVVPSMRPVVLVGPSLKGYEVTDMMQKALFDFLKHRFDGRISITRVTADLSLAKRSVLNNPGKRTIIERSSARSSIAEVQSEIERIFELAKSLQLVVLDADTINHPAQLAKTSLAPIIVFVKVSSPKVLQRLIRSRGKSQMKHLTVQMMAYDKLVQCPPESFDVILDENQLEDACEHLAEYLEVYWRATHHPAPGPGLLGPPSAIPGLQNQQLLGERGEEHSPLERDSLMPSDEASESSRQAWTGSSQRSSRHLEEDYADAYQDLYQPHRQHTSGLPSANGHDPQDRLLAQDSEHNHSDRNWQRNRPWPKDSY
experiment notes: Fluorescent assay for CaV2.2 channels using potassium depolarization (VIPR/FLIPR)
Type: cell-based
assay context: FLIPR data; inactivated state; read-out: CAv2.2 IC50 Inact.
Hello, just confirming the data are log10 of IC50 with units of nM.

Completed entries (count: 2):
>  <compound>
O=C(NC[C@H]1C[C@H](S(=O)(=O)c2cccc(C(F)(F)F)c2)C1)c1ccc(Cl)cn1

>  <parameter measured>
log10(IC50)

>  <numeric result>
2.63

$$$$
>  <compound>
CC(C)([C@H]1C[C@@H](C(=O)Nc2ccc(C(F)(F)F)cc2)C1)S(=O)(=O)c1cccc(C(F)(F)F)c1

>  <parameter measured>
log10(IC50)

>  <numeric result>
2.59

$$$$

Dear colleague, could you send me log10(IC50) for each of the items below? Thanks.
1. CS(=O)(=O)c1cc(C(F)(F)F)cnc1C(=O)NC[C@H]1C[C@H](S(=O)(=O)c2cc(F)cc(C(F)(F)F)c2)C1
2. CC(C)([C@H]1C[C@H](NS(=O)(=O)c2ccc(F)c(Cl)c2)C1)S(=O)(=O)c1cccc(C(F)(F)F)c1
3. CC(C)([C@H]1C[C@@H](NC(=O)c2cnc(C(F)(F)F)nc2)C1)S(=O)(=O)c1cccc(C(F)(F)F)c1

1: 3.34; 2: 3.03; 3: 2.82

Below are 4 compounds. Give each one its log10(IC50).
1. CC(C)(C[C@H]1C[C@H](NC(=O)[C@@H]2CCCC[C@H]2N)C1)S(=O)(=O)c1cccc(C(F)(F)F)c1
2. CC(C)([C@H]1C[C@H](NC(=O)c2cc(C(F)(F)F)n[nH]2)C1)S(=O)(=O)c1cc(F)cc(C(F)(F)F)c1
3. CC(C)([C@H]1C[C@@H](NC(=O)c2ccc(Cl)cn2)C1)S(=O)(=O)c1cccc(C(F)(F)F)c1
4. CC(C)([C@H]1C[C@H](NC(=O)c2cc(C(F)(F)F)n[nH]2)C1)S(=O)(=O)c1cccc(OC(F)(F)F)c1

1: 3.19; 2: 2.72; 3: 2.66; 4: 2.66

----------
target or system: CAv1.2 (Homo sapiens, UniProt Q13936)
experiment notes: L-type (CAv1.2) channel blocking, FLIPR data (Table 6)
Format: cell-based
assay context: ratio closed/inact.
Would you mind telling me the reported CAv1.2 IC50 Ratio closed/inact. of each entry?

Here's what some known entries look like.
>  <smiles code>
CC(C)([C@H]1C[C@H](CNc2ccc(Cl)c(F)c2)C1)S(=O)(=O)c1cccc(C(F)(F)F)c1

>  <parameter measured>
CAv1.2 IC50 Ratio closed/inact.

>  <result>
3.5

$$$$
>  <smiles code>
CC(C)([C@H]1C[C@H](C(=O)Nc2ccc(C(F)(F)F)nc2)C1)S(=O)(=O)c1cccc(C(F)(F)F)c1

>  <parameter measured>
CAv1.2 IC50 Ratio closed/inact.

>  <result>
2.8

$$$$
>  <smiles code>
CC(C)([C@H]1C[C@H](C(=O)Nc2cc(C(F)(F)F)n[nH]2)C1)S(=O)(=O)c1cccc(C(F)(F)F)c1

>  <parameter measured>
CAv1.2 IC50 Ratio closed/inact.

>  <result>
1.4

$$$$
>  <smiles code>
CC(C)([C@H]1C[C@@H](C(=O)Nc2ccc(C(F)(F)F)cc2)C1)S(=O)(=O)c1cccc(C(F)(F)F)c1

>  <parameter measured>
CAv1.2 IC50 Ratio closed/inact.

>  <result>
3.1

$$$$

Fill in CAv1.2 IC50 Ratio closed/inact. for each of the 4 compounds listed.
1. CC(C)([C@H]1C[C@H](C(=O)NCc2ccc(Oc3ccccc3)cc2)C1)S(=O)(=O)c1cccc(C(F)(F)F)c1
2. CC(C)([C@H]1C[C@H](C(=O)NCc2ccc(C(F)(F)F)nc2)C1)S(=O)(=O)c1cccc(C(F)(F)F)c1
3. CC(C)(C[C@H]1C[C@@H](NC(=O)[C@H]2CCCC[C@@H]2N)C1)S(=O)(=O)c1cccc(C(F)(F)F)c1
4. CC(C)([C@H]1C[C@H](C(=O)Nc2ccc(C(F)(F)F)cc2)C1)S(=O)(=O)c1cccc(C(F)(F)F)c1

1. 3.9
2. 1.9
3. 0.9
4. 3

Quick request: CAv1.2 IC50 Ratio closed/inact. for each listed item, please.
1. CC(C)([C@H]1C[C@@H](C(=O)Nc2cc(C(F)(F)F)n[nH]2)C1)S(=O)(=O)c1cccc(C(F)(F)F)c1
2. O=C(NC[C@H]1C[C@H](S(=O)(=O)c2cccc(Cl)c2)C1)c1ccc(C(F)(F)F)cn1
3. CC(C)([C@H]1C[C@@H](CNc2cc(C(F)(F)F)n[nH]2)C1)S(=O)(=O)c1cccc(C(F)(F)F)c1

1: 1.9; 2: 1.6; 3: 2.1

List the reported CAv1.2 IC50 Ratio closed/inact. of each compound below.
1. CC(C)([C@H]1C[C@H](C(=O)Nc2ccc(Cl)cn2)C1)S(=O)(=O)c1cccc(C(F)(F)F)c1
2. CC(C)([C@H]1C[C@H](C(=O)Nc2ccc(C(F)(F)F)cn2)C1)S(=O)(=O)c1cccc(C(F)(F)F)c1
3. CC(C)([C@H]1C[C@H](CNc2cc(C(F)(F)F)n[nH]2)C1)S(=O)(=O)c1cccc(C(F)(F)F)c1

1. 1.9
2. 1.8
3. 3.1
